# System: HCT-116 colon
# Assay: NCI tumour cell line growth inhibition, 48 h
For each record, write down the corresponding TGI.
Report only the number, with the unit µM understood.

Jot down TGI (HCT-116 colon) of `C[Si](C)(C)c1ccc(CC2(Cc3ccc([Si](C)(C)C)cc3)CCNC2)cc1` . 3.17

Report TGI from HCT-116 colon testing of COc1cccc(C2c3cc4c(cc3OC(N3CCCC3)C2C)OCO4)c1OC (stereo not given) 5.99

State recorded TGI with HCT-116 colon, entry COc1ccc(NC2Oc3cc4c(cc3C(c3cc(OC)c(OC)c(OC)c3)C2C)OCO4)cc1 (stereo not given) , no comment. 19.1

# credit: PubChem BioAssay (NCI)
